melting point listing for selected molecules.

Look over these answered cases.
- molecule: "CCCCN(CCCC)c1ccc(C=Cc2ccc(C(C#N)=C(C#N)C#N)s2)c(OC)c1"
  melting point: "189 to 192 °C"
- molecule: "Cc1cccc2ncc(C(=O)NC(C)(C)C)c(=O)n12"
  melting point: "164 to 166 °C"
- molecule: "CN(C)C(=O)c1nc(-c2cnccn2)nc2c1c1ccc(Cl)cc1n2C"
  melting point: "272 to 273 °C"
- molecule: "CN(C)Cc1cc2c(cc1O)CCC1C2CCC2(C)C(=O)CCC12 (centres undefined)"
  melting point: "172 to 173 °C"
- molecule: "CCCCN(CCCC)c1ccc(C=Cc2ccc(C=CC3=C(C#N)C(=C(C#N)C#N)OC3(c3ccccc3)C(F)(F)F)s2)c(OC)c1 (centres undefined)"
  melting point: "203 to 204 °C"
- molecule: "NS(=O)(=O)c1ccc(-c2cn(-c3nc(-c4ccc(C(F)(F)F)cc4)cc(C(F)(F)F)n3)cn2)s1"
  melting point: "281 °C"

Noted for CN1C(=O)C(c2ccc(OC(F)F)cc2)(c2cccc(CCCCC#N)c2)N=C1N (centres undefined) : its melting point reads 65 °C

Noted for COc1ccc2c(c1)C(=NO)c1c-2cnc2ccccc12 : its melting point reads 270 to 271 °C

Noted for CCn1cc(C(=O)O)c(=O)c2ccc(N3CCNCC3)cc21 : its melting point reads 272 to 275 °C

###

melting point listing for selected compounds.

- compound: "CC(C)(C)c1ccc(OP(Oc2ccc(C(C)(C)C)cc2C(C)(C)C)c2cccc3ccccc23)c(C(C)(C)C)c1"
  result: "125 to 127 °C"
- compound: "COc1ccc(-c2nc(NC(C)=O)sc2-c2ccnc(NC(C)=O)c2)cc1"
  result: "262 to 264 °C"
- compound: "O=Cc1ccc(-c2ccc(O)cc2)c2ccoc12"
  result: "184 to 185 °C"
- compound: "C=C(c1ccc(N(CC)CC)cc1)c1ccc(N(CC)CC)cc1"
  result: "100 to 102 °C"
- compound: "COc1ccc(CNc2n[nH]c3ncnc(Nc4cccc(Cl)c4)c23)c(OC)c1OC"
  result: "168 to 169 °C"
- compound: "O=C1NC(=O)C(c2ccc3cc(-c4ccc(O)c(C56CC7CC(CC(C7)C5)C6)c4)ccc3c2)S1 (centres undefined)"
  result: "312 to 314 °C"
- compound: "O=C(O)CC(NC(=O)OCC1c2ccccc2-c2ccccc21)C(F)(F)F (centres undefined)"
  result: "187 to 189 °C"
- compound: "O=C(C1CCCN1)N1CCN(c2nc(N3CCCC3)nc(N3CCCC3)n2)CC1 (centres undefined)"
  result: "143 °C"

Noted for CC(C)CCS(=O)C1=C(O)CC(C)(C)CC1=O (centres undefined) : its melting point reads 64.5 to 66 °C

###

recorded_endpoint: melting point

Look over these answered cases.
- molecule: "CCc1ccc(NC(=O)OCc2ccccc2)nc1"
  melting point: "125 to 127 °C"
- molecule: "O=C1c2cccc([N+](=O)[O-])c2C(=O)N1CC(=O)N1c2ccccc2N(Cc2ccccc2)C(=O)[C@H]2CCC[C@H]21 (relative stereo)"
  melting point: "238 to 240 °C"
- molecule: "O=C(O)c1cscc1Br"
  melting point: "157 to 158 °C"
- molecule: "CC(C)(C)c1ccc(C(=O)c2ccc3n2Cc2ccccc2N(C(=O)c2ccc(C4CCCCC4)cc2)C3)cc1"
  melting point: "143 to 145 °C"
- molecule: "Cc1ccc(C(=O)Nc2c[nH]nc2C(=O)NCCC#N)cc1"
  melting point: "207 to 209 °C"

Noted for O=[N+]([O-])c1cc(S(=O)(=O)N2CCC(O)C2)sc1Cl (racemic) : its melting point reads 96 °C

Noted for CN(c1ccc(F)c2cc(-c3nccs3)[nH]c12)S(=O)(=O)c1cccs1 : its melting point reads 197 to 198 °C

Noted for Cc1cc(=O)n(-c2ccc(Cl)cc2F)c(=O)n1C : its melting point reads 145 °C

Noted for COc1cc(/C=C/C(=O)Nc2ccccc2C(=O)O)ccc1OCC1CCCCC1 : its melting point reads 207 to 210 °C

###

recorded_endpoint: melting point

Look over these answered cases.
- compound: "O=c1cc2c(nn1-c1ccccc1)-c1cc(Cl)ccc1CC2"
  melting point: "184 to 186 °C"
- compound: "CN(C)C1=NS(=O)(=O)c2ccccc21"
  melting point: "323 to 324 °C"
- compound: "CC(C)(C)c1cc(NC(=O)c2ccccc2)cc(C(C)(C)C)c1O"
  melting point: "209 to 210 °C"
- compound: "COc1cccc(-c2cc(F)c3c(c2)CC(CN)O3)c1 (configuration not stated)"
  melting point: "> 250 °C"

Noted for CCOC(=O)C1C(Cl)C(=O)N1c1ccc(OC)cc1 (configuration not stated) : its melting point reads 99 to 100 °C

Noted for O=C(O)c1ccc(N(CC2CC2)c2cc3c4c(c2)CCCC4CCC3)cc1 : its melting point reads 214 to 216 °C

Noted for CCCCCCCCCCCCc1c[nH]c(C(=O)OC)c1 : its melting point reads 68 to 69 °C

###

melting point listing for selected molecules.

Noted for O=C(c1ccccc1)N1CCc2cc(Cl)ccc21 : its melting point reads 135 to 136 °C

###

melting point listing for selected compounds.

- compound: "N#Cc1ccc(Nn2cnnc2)cc1"
  result: "200 to 204 °C"
- compound: "CCc1noc(-c2ncn(-c3cccc(Oc4ccc(Cl)cc4)c3)c2COC)n1"
  result: "68 to 70 °C"
- compound: "CCC(C)(C)Nc1c(NCc2c(C)cccc2C)c(=O)c1=O"
  result: "227 to 231 °C"

Noted for CNC(=O)CC1CN=C(c2cc3cc(Oc4ccc(S(C)(=O)=O)cn4)cc(OC(COC)COC)c3[nH]2)S1 (stereo not given) : its melting point reads 123 to 125 °C

Noted for CC(C)N1C(=O)NCc2c(-c3ccccc3)cccc21 : its melting point reads 182 to 183 °C

Noted for O=C(O)CN1C(=O)C(=Cc2cccnc2)SC1=S : its melting point reads 261 to 264 °C

Noted for Nc1ccc(CC(=O)N2CCC(c3[nH]nc4c3C(=O)c3c(NC(=O)NN5CCOCC5)cccc3-4)CC2)cc1 : its melting point reads 177 to 179 °C

Noted for CCCOCCN(CC)c1ccc(-c2ccc3c(c2)C=C(C(=O)O)CCN3C=O)cc1 : its melting point reads 169 to 171 °C

Noted for CCOC(=O)c1ccc(NC(=O)N2CCc3cc(SC)c(C(F)(F)F)cc32)cc1 : its melting point reads > 200 °C

Noted for CC(c1oc2ccccc2c(=O)c1-c1ccccc1)n1ncc2c(N)ncnc21 (stereo not given) : its melting point reads 226 to 227 °C

###

melting point listing for selected molecules.

- molecule: "Cc1cc(C)c2c(c1)OCC2=O"
  result: "55 to 60 °C"
- molecule: "O=C(O)CCc1c(C(=O)O)[nH]c2cc(Br)ccc12"
  result: "234 to 235 °C"
- molecule: "CCOC(=O)C1(c2ccc(Cl)cc2)OCC2(CO1)c1ccccc1Oc1ccccc12"
  result: "131 to 132 °C"

Noted for NS(=O)(=O)c1ccc(NC(=O)Nc2ccc(I)cc2)cc1 : its melting point reads 275 to 277 °C

Noted for CCC[C@H]1CC[C@H](CCc2cc(F)c(C#N)c(F)c2)CC1 : its melting point reads 27.3 °C

Noted for CC(O)c1ccc(-c2ccnc(Nc3ccc4c(c3)OCCO4)c2)cc1 (stereo not given) : its melting point reads 55.9 to 61.5 °C

Noted for CCCn1c(=S)nc(NCc2ccncc2)c2[nH]c(C3CC3)nc21 : its melting point reads 204 to 210 °C

Noted for CON=Cc1nc2c(N)nc3cc(-c4cccc(CS(N)(=O)=O)c4)ccc3c2s1 : its melting point reads 254 to 256 °C

Noted for C[C@H](O)c1nnc(-c2ccc3occ(-c4ccc(S(C)(=O)=O)cc4)c3c2)o1 : its melting point reads 175 to 176 °C

Noted for FC(F)(F)c1ccc2c(C3CCN(CCCOc4cccc5[nH]ccc45)CC3)c[nH]c2c1 : its melting point reads 92 to 97 °C

###

melting point listing for selected molecules.

Look over these answered cases.
- molecule: "CC(C)(C)n1ncc(SCc2ccc(Oc3ccc(C(F)(F)F)cc3)cc2)c(Cl)c1=O"
  result: "152 to 156 °C"
- molecule: "COCOc1ccc2cc(Br)ccc2c1"
  result: "46.8 to 49.2 °C"
- molecule: "CS(=O)(=O)Nc1cc2c(c(C(=O)O)c1)NCCCC2"
  result: "204 to 205 °C"
- molecule: "CCCCNS(=O)(=O)CC(O)C(O)C(CC1CCCCC1)NC(=O)c1ccc(O)nc1 (stereo unspecified)"
  result: "247 to 252 °C"
- molecule: "CC#CCOc1nsc(-c2ccccc2)n1"
  result: "70.3 °C"

Noted for C=CCc1ccc(C(NC(C)=O)C(=O)OC)cc1O (stereo unspecified) : its melting point reads 143 to 145 °C

Noted for CCn1c(=O)c2[nH]c(/C=C/c3cc(OC)c4c(c3)OCO4)nc2n(CC)c1=O : its melting point reads > 270 °C

Noted for O=C(c1ccc([N+](=O)[O-])cc1)c1cc2c(c(Cl)c1Cl)OC(C(=O)O)C2 (stereo unspecified) : its melting point reads 243 to 245 °C

Noted for CCc1nc2c(N)nc3cc(OCCc4c(C)n[nH]c4C)ccc3c2s1 : its melting point reads 195 to 197 °C

Noted for N#CCN1CCN(c2cccccc2=O)CC1 : its melting point reads 133 to 135 °C

Noted for CCOC(=O)c1cn(-c2ccc(OC)cc2)[nH]c1=O : its melting point reads 125 to 127 °C
